Target: T1, death receptor 6 (DR6) protein (UniProt O75509 42-349, labelled with RED-tris-NTA second-generation dye)
T1 construct: death receptor 6 (DR6), bought recombinant protein; source: bought: Sino Biology, Inc. (Shanghai, China)
T1 sequence (looked up): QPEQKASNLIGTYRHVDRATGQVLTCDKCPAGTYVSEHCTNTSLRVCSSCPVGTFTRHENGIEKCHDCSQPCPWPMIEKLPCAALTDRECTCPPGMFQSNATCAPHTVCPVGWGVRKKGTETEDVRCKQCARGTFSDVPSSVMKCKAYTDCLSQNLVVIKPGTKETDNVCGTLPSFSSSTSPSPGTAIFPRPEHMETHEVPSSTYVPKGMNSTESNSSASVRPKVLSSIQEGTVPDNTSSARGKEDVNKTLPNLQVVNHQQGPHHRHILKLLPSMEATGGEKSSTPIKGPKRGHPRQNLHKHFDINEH
Test: MST; DR6 protein labelled with RED-tris-NTA second-generation dye, final 50 x 10^-9 M; peptide prepared at 20 x 10^-6 M, diluted serially 1:1 in PBS-T over 12 tubes and mixed with an equal volume of labelled DR6; NanoTemper Monolith NT.015
Conditions: both partners purified
pKd: −log10 of the molar value.
Below: a set of entries, each annotated with reported pKd.
readout: pKd

>>> result("NGSTHER (heptapeptide selected from a random phage display library against DR6; source: synthetic peptide (SPPS)) [AHP-10]")
6.28
>>> result("YYSGNNL (heptapeptide selected from a random phage display library against DR6; source: synthetic peptide (SPPS)) [AHP-05]")
5.96
>>> result("GGLSMTR (heptapeptide selected from a random phage display library against DR6; source: synthetic peptide (SPPS)) [AHP-23]")
5.35
>>> result("YLPAPLP (heptapeptide selected from a random phage display library against DR6; source: synthetic peptide (SPPS)) [AHP-03]")
6.16
>>> result("SHTDTNQ (heptapeptide selected from a random phage display library against DR6; source: synthetic peptide (SPPS)) [AHP-13]")
5.94
>>> result("NHQRLLP (heptapeptide selected from a random phage display library against DR6; source: synthetic peptide (SPPS)) [AHP-24]")
5.96
>>> result("WTLSINS (heptapeptide selected from a random phage display library against DR6; source: synthetic peptide (SPPS)) [AHP-01]")
5.94
